- study-target: HLA-A*02:03
- assay-name: IEDB peptide-MHC binding, purified MHC/direct/fluorescence; filed as Kd, often an IC50 or EC50 that approximates it; bounds were set here for any values at or beyond the usual limits of such assays
- study-conditions: source organism: Orthohantavirus andesense
Please go through the items and note down their Kd.

State the recorded Kd for this entry: `DAVEDFLAF` ≥ 20 µM

Next sequence: `AVEDFLAFF` ≥ 20 µM

---

- study-target: HLA-B*51:01
- assay-name: IEDB peptide-MHC binding, purified MHC/competitive/fluorescence; filed as Kd, often an IC50 or EC50 that approximates it; bounds were set here for any values at or beyond the usual limits of such assays
- study-conditions: source organism: Bacillus anthracis str. A0488
recorded-endpoint: Kd

State the recorded Kd for this entry: `IQKGMFVVK` ≥ 20 µM

Next sequence: `SYMLQGLRK` ≥ 20 µM

---

- study-target: HLA-A*26:01
- assay-name: IEDB peptide-MHC binding, purified MHC/competitive/fluorescence; filed as Kd, often an IC50 or EC50 that approximates it; bounds were set here for any values at or beyond the usual limits of such assays
- study-conditions: source organism: Homo sapiens
Please go through the items and note down their Kd.

State the recorded Kd for this entry: `YSDNEMLTH` ≥ 20 µM

Next sequence: `SLFNWLWYE` ≥ 20 µM

---

- study-target: HLA-C*04:01
- assay-name: IEDB peptide-MHC binding, purified MHC/direct/fluorescence; filed as Kd, often an IC50 or EC50 that approximates it; bounds were set here for any values at or beyond the usual limits of such assays
- study-conditions: source organism: Leishmania major strain Friedlin
recorded-endpoint: Kd

State the recorded Kd for this entry: `TRDPNLAYI` ≥ 20 µM

---

- study-target: HLA-C*07:02
- assay-name: IEDB peptide-MHC binding, purified MHC/direct/fluorescence; filed as Kd, often an IC50 or EC50 that approximates it; bounds were set here for any values at or beyond the usual limits of such assays
- study-conditions: source organism: Mus musculus
recorded-endpoint: pKd
pKd here: minus log base 10 of the concentration, concentration in moles per litre.

// fetch HLA-C*07:02 pKd for `FRMLAWHVL` 7.52

---

- study-target: HLA-C*12:03
- assay-name: IEDB peptide-MHC binding, purified MHC/direct/fluorescence; filed as Kd, often an IC50 or EC50 that approximates it; bounds were set here for any values at or beyond the usual limits of such assays
- study-conditions: source organism: Human herpesvirus 4 strain B95-8
recorded-endpoint: Kd

State the recorded Kd for this entry: `KAVETPILV` ≤ 1 nM

---

- study-target: HLA-A*24:02
- assay-name: IEDB peptide-MHC binding, purified MHC/competitive/fluorescence; bounds were set here for any values at or beyond the usual limits of such assays
- study-conditions: source organism: Vaccinia virus
Please go through the items and note down their IC50.
The response must be a number in µM with no trailing unit.

State the recorded IC50 for this entry: `YPNVCIFGN` 35.5

Next sequence: `KEFLRYLLF` 0.381

---

- study-target: HLA-A*03:01
- assay-name: IEDB peptide-MHC binding, purified MHC/direct/fluorescence; filed as Kd, often an IC50 or EC50 that approximates it; bounds were set here for any values at or beyond the usual limits of such assays
- study-conditions: source organism: Bacillus cereus 03BB108
pKd: −log10 of the molar value.
recorded-endpoint: pKd

State the recorded pKd for this entry: `SYMLQGLRK` ≤ 4.70

---

- study-target: HLA-A*24:02
- assay-name: IEDB peptide-MHC binding, purified MHC/competitive/radioactivity; filed as Kd, often an IC50 or EC50 that approximates it; bounds were set here for any values at or beyond the usual limits of such assays
- study-conditions: source organism: Mammarenavirus choriomeningitidis
pKd: −log10 of the molar value.
recorded-endpoint: pKd

State the recorded pKd for this entry: `EGFMRKQKY` ≤ 4.11

---

- study-target: HLA-A*02:03
- assay-name: IEDB peptide-MHC binding, purified MHC/direct/fluorescence; filed as Kd, often an IC50 or EC50 that approximates it; bounds were set here for any values at or beyond the usual limits of such assays
- study-conditions: source organism: Bacillus anthracis str. Sterne
pKd: −log10 of the molar value.
recorded-endpoint: pKd

State the recorded pKd for this entry: `KKNHWFILK` ≤ 4.70

---

- study-target: HLA-C*05:01
- assay-name: IEDB peptide-MHC binding, purified MHC/direct/fluorescence; filed as Kd, often an IC50 or EC50 that approximates it; bounds were set here for any values at or beyond the usual limits of such assays
- study-conditions: source organism: Haemophilus influenzae R2846
recorded-endpoint: pKd
pKd here: minus log base 10 of the concentration, concentration in moles per litre.

State the recorded pKd for this entry: `TSDEIYMTF` 7.80

---

Please go through the items and note down their Kd.
- study-target: HLA-A*02:01
- assay-name: IEDB peptide-MHC binding, purified MHC/competitive/fluorescence; filed as Kd, often an IC50 or EC50 that approximates it; bounds were set here for any values at or beyond the usual limits of such assays
- study-conditions: source organism: Cryptosporidium parvum Iowa II

State the recorded Kd for this entry: `ERTDLFFPV` ≥ 20 µM

Next sequence: `KLYLRPWWH` ≥ 20 µM

---

- study-target: HLA-C*12:03
- assay-name: IEDB peptide-MHC binding, purified MHC/direct/fluorescence; filed as Kd, often an IC50 or EC50 that approximates it; bounds were set here for any values at or beyond the usual limits of such assays
- study-conditions: source organism: Mycobacterium tuberculosis C
recorded-endpoint: Kd (nM)
The response must be a number in nM with no trailing unit.

State the recorded Kd for this entry: `RAYWIHLMM` 2

---

Please go through the items and note down their pKd.
- study-target: HLA-A*11:01
- assay-name: IEDB peptide-MHC binding, purified MHC/competitive/radioactivity; filed as Kd, often an IC50 or EC50 that approximates it; bounds were set here for any values at or beyond the usual limits of such assays
- study-conditions: source organism: Vaccinia virus WR
pKd here: minus log base 10 of the concentration, concentration in moles per litre.

State the recorded pKd for this entry: `VIDKAKVMGR` 6.31

Next sequence: `LIIYYQLAGY` 5.29

Next sequence: `YIAVANCVR` 4.86

Next sequence: `KQYIVATLMK` 8.42

Next sequence: `NTKSDIDVIK` 7.16

Next sequence: `GLCAHILLY` 7.43

Next sequence: `PIGMQFDKVY` 5.91

Next sequence: `KSIENKHQRR` 6.70

Next sequence: `EAVYGNIKHK` 4.93

Next sequence: `LTDTIESAK` 6.90

Next sequence: `TIANSNIIK` 7.43

Next sequence: `YSGLTPEQK` 6.30

Next sequence: `IQLDEKSSIK` 8.34

Next sequence: `ELTTVFIKY` 5.17

Next sequence: `KQLCYCPASK` 7.86

Next sequence: `YIYSEIKQGR` 4.94

Next sequence: `YTYDRVDIYY` 8.62

Next sequence: `SMRYQSLIPR` 9.00

Next sequence: `ILNKIVQLPK` 6.54

Next sequence: `FFTELENKK` 5.21

---

- study-target: HLA-A*02:19
- assay-name: IEDB peptide-MHC binding, purified MHC/competitive/fluorescence; filed as Kd, often an IC50 or EC50 that approximates it; bounds were set here for any values at or beyond the usual limits of such assays
- study-conditions: source organism: Rickettsia sibirica 246
recorded-endpoint: Kd

// fetch HLA-A*02:19 Kd for `YLKKLDDFY` ≥ 20 µM

---

- study-target: HLA-B*83:01
- assay-name: IEDB peptide-MHC binding, purified MHC/competitive/fluorescence; filed as Kd, often an IC50 or EC50 that approximates it; bounds were set here for any values at or beyond the usual limits of such assays
- study-conditions: source organism: Mycobacterium tuberculosis C
recorded-endpoint: Kd

State the recorded Kd for this entry: `RLYQYSFAK` ≥ 5 µM

---

- study-target: HLA-A*02:19
- assay-name: IEDB peptide-MHC binding, purified MHC/direct/fluorescence; filed as Kd, often an IC50 or EC50 that approximates it; bounds were set here for any values at or beyond the usual limits of such assays
- study-conditions: source organism: Araucaria virus
pKd: −log10 of the molar value.
recorded-endpoint: pKd

State the recorded pKd for this entry: `GVPELGAFF` ≤ 4.70

---

- study-target: HLA-A*11:01
- assay-name: IEDB peptide-MHC binding, purified MHC/competitive/radioactivity; filed as Kd, often an IC50 or EC50 that approximates it; bounds were set here for any values at or beyond the usual limits of such assays
- study-conditions: source organism: Mammarenavirus whitewaterense
pKd: −log10 of the molar value.
recorded-endpoint: pKd

State the recorded pKd for this entry: `SFKDQSKYCH` ≤ 4.16

---

- study-target: HLA-A*29:02
- assay-name: IEDB peptide-MHC binding, purified MHC/competitive/fluorescence; filed as Kd, often an IC50 or EC50 that approximates it; bounds were set here for any values at or beyond the usual limits of such assays
- study-conditions: source organism: Human betaherpesvirus 7
recorded-endpoint: Kd (nM)
The response must be a number in nM with no trailing unit.

State the recorded Kd for this entry: `LSMFVTNKK` 62.7
